The reported numbers originate from the supplement of paper PMC7366291.

Tested on: Danio rerio Tg(wt1b:EGFP) embryo, pronephros
assay: glomerular width (mean of left and right), fold change vs DMSO control; higher = wider glomerulus
conditions: 25 µM; exposure: 24-48 hpf
Counter-ions that a name gives are not always drawn.
// reported glomerular width for each item listed
Reply briefly: the number, and no unit.

glomerular width reported for this molecule CNCCC(Oc1ccccc1OC)c1ccccc1 (stereo not given) [Nisoxetine hydrochloride] : 0.94

Value of measured glomerular width for the entry O=C(CCCN1CCC(O)(c2ccc(Cl)cc2)CC1)c1ccc(F)cc1 [Haloperidol] : 0.918

Just so you know, measured glomerular width for CCN(CC)CCCC(C)Nc1c2ccc(Cl)cc2nc2ccc(OC)cc12 (stereo not given) [Quinacrine dihydrochloride hydrate] came out at 1.01

Just so you know, measured glomerular width for Cc1ncc(CO)c(CO)c1O [Pyridoxine hydrochloride] came out at 1.04

glomerular width for CC[N+](CC)(CC)CCC(O)(c1ccccc1)C1CCCCC1 (stereo not given) [Tridihexethyl chloride] is 0.925

###

System: Danio rerio Tg(wt1b:EGFP) embryo, pronephros
assay: glomerular separation, fold change vs DMSO control; higher = glomeruli further apart (abnormal)
conditions: 25 µM; exposure: 24-48 hpf
Structures can show the parent of a compound that is named as a salt.
metricName: glomerular separation
When you answer, write just the number.

Below, each entry is followed by its recorded glomerular separation result.
{"compound": "C[C@]12C=CC(=O)C=C1CC[C@@H]1[C@@H]2[C@@H](O)C[C@@]2(C)[C@H]1CC[C@]2(O)C(=O)CO", "experimentalTarget": "Danio rerio Tg(wt1b:EGFP) embryo, pronephros", "glomerular separation": 1.36}
{"compound": "CC[C@H]1OC(=O)[C@H](C)[C@@H](O[C@H]2C[C@@](C)(OC)[C@@H](O)[C@H](C)O2)[C@H](C)[C@@H](O[C@@H]2O[C@H](C)C[C@H](N(C)C)[C@H]2O)[C@](C)(O)C[C@@H](C)[C@@H]2N[C@@H](COCCOC)O[C@H]([C@H]2C)[C@]1(C)O", "experimentalTarget": "Danio rerio Tg(wt1b:EGFP) embryo, pronephros", "glomerular separation": 1}
{"compound": "CN1CCC(=C2c3ccccc3CC(=O)c3sccc32)CC1 [Ketotifen fumarate]", "experimentalTarget": "Danio rerio Tg(wt1b:EGFP) embryo, pronephros", "glomerular separation": 0.991}
{"compound": "CN1CCOC(c2ccccc2)c2ccccc2C1 (configuration not stated) [Nefopam hydrochloride]", "experimentalTarget": "Danio rerio Tg(wt1b:EGFP) embryo, pronephros", "glomerular separation": 0.828}
{"compound": "CN1CCCC(CC2c3ccccc3Sc3ccccc32)C1 (configuration not stated) [Metixene hydrochloride]", "experimentalTarget": "Danio rerio Tg(wt1b:EGFP) embryo, pronephros", "glomerular separation": 0.961}
{"compound": "CNS(=O)(=O)Cc1ccc2[nH]cc(CCN(C)C)c2c1 [Sumatriptan succinate]", "experimentalTarget": "Danio rerio Tg(wt1b:EGFP) embryo, pronephros", "glomerular separation": 0.982}

Would you kindly look at the next entry?
Reported Danio rerio Tg(wt1b:EGFP) embryo, pronephros glomerular separation for item CC(C)NCC(O)c1ccc(NS(C)(=O)=O)cc1 (configuration not stated) [Sotalol hydrochloride] was 0.82

###

Test system: Danio rerio Tg(wt1b:EGFP) embryo, pronephros
assay: fraction of imaged embryos annotated as normal kidney; higher = less nephrotoxic; extreme values may be limits of the assay
conditions: 25 µM; exposure: 24-48 hpf
Structures can show the parent of a compound that is named as a salt.
metricName: fraction of imaged embryos annotated as normal kidney
Quick one: just the number, no unit, thanks!

A selection of reference data follows.
{"molecule": "COc1ccc(-c2cc(=O)c3c(O)cc(O[C@@H]4O[C@H](CO[C@@H]5O[C@@H](C)[C@H](O)[C@@H](O)[C@H]5O)[C@@H](O)[C@H](O)[C@H]4O)cc3o2)cc1O [Diosmin]", "observedMeasurement": 0.727}
{"molecule": "C[C@@H]1C[C@H]2[C@@H]3CCC4=CC(=O)C=C[C@]4(C)[C@@]3(Cl)[C@@H](O)C[C@]2(C)[C@@]1(OC(=O)c1ccco1)C(=O)CCl [Mometasone furoate]", "observedMeasurement": 0.455}
{"molecule": "CCCOc1ccccc1-c1nc2[nH]nnc2c(=O)[nH]1 [Zaprinast]", "observedMeasurement": 0.727}
{"molecule": "CCc1c2c(nc3ccc(OC(=O)N4CCC(N5CCCCC5)CC4)cc13)-c1cc3c(c(=O)n1C2)COC(=O)[C@]3(O)CC [Irinotecan hydrochloride trihydrate]", "observedMeasurement": 0.667}
{"molecule": "Clc1ccc(CSC(Cn2ccnc2)c2ccc(Cl)cc2Cl)cc1 (configuration not stated) [Sulconazole nitrate]", "observedMeasurement": 0.25}

// assay Danio rerio Tg(wt1b:EGFP) embryo, pronephros, entry CCN(CC)C(=O)N1CCN(C)CC1 [Diethylcarbamazine citrate] , fraction of imaged embryos annotated as normal kidney value = 0.909

Danio rerio Tg(wt1b:EGFP) embryo, pronephros fraction of imaged embryos annotated as normal kidney of CCOc1ccc2ccccc2c1C(=O)N[C@@H]1C(=O)N2[C@@H]1SC(C)(C)[C@@H]2C(=O)O [Nafcillin sodium salt monohydrate] is 0.833

###

System: Danio rerio Tg(wt1b:EGFP) embryo, pronephros
assay: glomerular separation, fold change vs DMSO control; higher = glomeruli further apart (abnormal)
conditions: 25 µM; exposure: 24-48 hpf
Structures can show the parent of a compound that is named as a salt.
metricName: glomerular separation
Write no unit; give the number alone.

{"compound": "O=C1NCC2(CCN(CCc3ccccc3)CC2)O1 [Fenspiride hydrochloride]", "experimentalTarget": "Danio rerio Tg(wt1b:EGFP) embryo, pronephros", "metricName": "glomerular separation", "observedMeasurement": 1.24}

Kindly review the next compound as well.
The compound listed as Nc1ccc(S(=O)(=O)NC(=O)c2ccccc2)cc1 [Sulfabenzamide] has a reported glomerular separation of 1.2

###

Tested on: Danio rerio Tg(wt1b:EGFP) embryo, pronephros
assay: glomerular separation, fold change vs DMSO control; higher = glomeruli further apart (abnormal)
conditions: 25 µM; exposure: 24-48 hpf
Structures can show the parent of a compound that is named as a salt.
metricName: glomerular separation
No unit in the answer, please; the number alone is enough.

Study these solved cases before continuing.
{"compound": "OC[C@H]1O[C@@H](Oc2ccc(O)cc2)[C@H](O)[C@@H](O)[C@@H]1O", "metricName": "glomerular separation", "observedMeasurement": 0.869}
{"compound": "NC[C@H]1O[C@H](O[C@H]2[C@H](O[C@@H]3O[C@H](CO)[C@@H](O)[C@H]3O)[C@@H](O)[C@H](N)C[C@@H]2N)[C@H](N)[C@@H](O)[C@@H]1O [Ribostamycin sulfate salt]", "metricName": "glomerular separation", "observedMeasurement": 0.722}
{"compound": "Cc1nc2n(c(=O)c1CCN1CCC(c3noc4cc(F)ccc34)CC1)CCCC2", "metricName": "glomerular separation", "observedMeasurement": 0.741}

# ---- query compound ----
Result for CN(C)CCCN1c2ccccc2CCc2ccc(Cl)cc21 [Clomipramine hydrochloride] , tested on Danio rerio Tg(wt1b:EGFP) embryo, pronephros, glomerular separation: 1.18

###

Test system: Danio rerio Tg(wt1b:EGFP) embryo, pronephros
assay: glomerular separation, fold change vs DMSO control; higher = glomeruli further apart (abnormal)
conditions: 25 µM; exposure: 24-48 hpf
Where a name gives a salt, the structure may show the parent alone.
metricName: glomerular separation
Give only the figure.

{"compound": "O=C(CCCN1CCN(c2ccccn2)CC1)c1ccc(F)cc1", "glomerular separation": 1.11}
{"compound": "C[C@H](O)C(=O)Nc1c(I)c(C(=O)NC(CO)CO)c(I)c(C(=O)NC(CO)CO)c1I", "glomerular separation": 0.92}
{"compound": "O=C(O)CCCC[C@@H]1SC[C@@H]2NC(=O)N[C@@H]21", "glomerular separation": 0.993}
{"compound": "CC1=C(/C=C/C(C)=C/C=C/C(C)=C\\C(=O)O)C(C)(C)CCC1", "glomerular separation": 4.83}
{"compound": "CCN1CCN(c2cc3c(cc2F)c(=O)c(C(=O)O)cn3C2CC2)CC1", "glomerular separation": 0.888}
{"compound": "CO[C@@H]1[C@@H](O[C@@H]2O[C@H](C)[C@@H](O[C@H]3C[C@@](C)(O)[C@@H](OC(=O)CC(C)C)[C@H](C)O3)[C@H](N(C)C)[C@H]2O)[C@@H](CC=O)C[C@@H](C)[C@@H](O)/C=C/C=C/C[C@@H](C)OC(=O)C[C@H]1OC(C)=O", "glomerular separation": 1.16}
{"compound": "CN(C)CC/C=C1\\c2ccccc2CSc2ccccc21 [Dosulepin hydrochloride]", "glomerular separation": 1.15}
{"compound": "CCCCNC(=O)NS(=O)(=O)c1ccc(C)cc1 [Tolbutamide]", "glomerular separation": 1.01}
{"compound": "COCC(=O)Nc1c(I)c(C(=O)NCC(O)CO)c(I)c(C(=O)N(C)CC(O)CO)c1I (configuration not stated) [Iopromide]", "glomerular separation": 0.857}
{"compound": "O=C(O[C@@H]1C[C@@H]2C[C@H]3C[C@H](C1)N2CC3=O)c1c[nH]c2ccccc12 [Dolasetron mesilate]", "glomerular separation": 0.787}

Looking up `C[C@]12C[C@H](O)[C@H]3[C@@H](CCC4=CC(=O)CC[C@@]43C)[C@@H]1CC[C@@H]2C(=O)CO` , I see its glomerular separation listed as 1.36

glomerular separation recorded for this compound, `Nc1ccc(C(=O)NCC(=O)O)cc1` , is 0.88

glomerular separation measured on CC[N+](C)(C)Cc1ccccc1Br [Bretylium tosylate] = 0.631

Looking up NS(=O)(=O)c1cc(C2(O)NC(=O)c3ccccc32)ccc1Cl (configuration not stated) , I found its glomerular separation recorded as 1.04

Documented glomerular separation of `NC(N)=Nc1nc(CSCC/C(N)=N/S(N)(=O)=O)cs1` : 1.11
